# Organism: Rattus norvegicus
# procedure-summary: Maximum level of relaxation of aortic rings measured as percentage of basal tension.
# Type: functional
# measurement-parameters: Aorta
Give measured Emax for each item. Keep answers brief.
Number first, unit second: that is the form wanted.

Worked cases, answers included:
smiles-data: CC1(C)C=C(n2ccccc2=O)c2cc(S(N)(=O)=O)ccc2O1
quantity: Emax
experimental-value: 77.5%

smiles-data: CC1(C)C=C(n2ccccc2=O)c2cc(S(=O)(=O)N=[N+]=[N-])ccc2O1
quantity: Emax
experimental-value: 88.3%

smiles-data: CNS(=O)(=O)c1ccc2c(c1)C(n1ccccc1=O)=CC(C)(C)O2
quantity: Emax
experimental-value: 85.8%

smiles-data: CC1(C)C=C(n2ccccc2=O)c2cc(C#N)ccc2O1
quantity: Emax
experimental-value: 92.3%

smiles-data: CC1(C)C=C(n2ccccc2=O)c2cc(S(=O)(=O)Oc3ccccc3)ccc2O1
quantity: Emax
experimental-value: 67.9%

Here are 4 molecules. What values of Emax were reported for them?
1. CN(C)S(=O)(=O)c1ccc2c(c1)C(n1ccccc1=O)=CC(C)(C)O2
2. CC1(C)C=C(n2ccccc2=O)c2cc(S(=O)(=O)N3CCOCC3)ccc2O1
3. CC1(C)C=C(n2ccccc2=O)c2cc(S(=O)(=O)Nc3ccc(C#N)cc3)ccc2O1
4. CCNS(=O)(=O)c1ccc2c(c1)C(n1ccccc1=O)=CC(C)(C)O2

1. 78.3%
2. 75.5%
3. 84%
4. 72.4%

Here are 5 molecules. What values of Emax were reported for them?
1. CC1(C)C=C(n2ccccc2=O)c2cc(S(=O)(=O)Nc3ccc([N+](=O)[O-])cc3)ccc2O1
2. CC1(C)Oc2ccc(S(=O)(=O)c3ccccc3)cc2[C@@H](N2CCCC2=O)[C@@H]1O
3. COc1ccc(NS(=O)(=O)c2ccc3c(c2)C(n2ccccc2=O)=CC(C)(C)O3)cc1
4. CC(C)NS(=O)(=O)c1ccc2c(c1)C(n1ccccc1=O)=CC(C)(C)O2
5. CC1(C)C=C(n2ccccc2=O)c2cc(S(=O)(=O)NCc3ccccc3)ccc2O1

1. 82.2%
2. 81.2%
3. 77.9%
4. 76.9%
5. 71.1%

* * *

# target-or-system: ATP-binding cassette sub-family C member 9 (Rattus norvegicus) (UniProt Q63563)
# Sequence (Q63563 whole entry): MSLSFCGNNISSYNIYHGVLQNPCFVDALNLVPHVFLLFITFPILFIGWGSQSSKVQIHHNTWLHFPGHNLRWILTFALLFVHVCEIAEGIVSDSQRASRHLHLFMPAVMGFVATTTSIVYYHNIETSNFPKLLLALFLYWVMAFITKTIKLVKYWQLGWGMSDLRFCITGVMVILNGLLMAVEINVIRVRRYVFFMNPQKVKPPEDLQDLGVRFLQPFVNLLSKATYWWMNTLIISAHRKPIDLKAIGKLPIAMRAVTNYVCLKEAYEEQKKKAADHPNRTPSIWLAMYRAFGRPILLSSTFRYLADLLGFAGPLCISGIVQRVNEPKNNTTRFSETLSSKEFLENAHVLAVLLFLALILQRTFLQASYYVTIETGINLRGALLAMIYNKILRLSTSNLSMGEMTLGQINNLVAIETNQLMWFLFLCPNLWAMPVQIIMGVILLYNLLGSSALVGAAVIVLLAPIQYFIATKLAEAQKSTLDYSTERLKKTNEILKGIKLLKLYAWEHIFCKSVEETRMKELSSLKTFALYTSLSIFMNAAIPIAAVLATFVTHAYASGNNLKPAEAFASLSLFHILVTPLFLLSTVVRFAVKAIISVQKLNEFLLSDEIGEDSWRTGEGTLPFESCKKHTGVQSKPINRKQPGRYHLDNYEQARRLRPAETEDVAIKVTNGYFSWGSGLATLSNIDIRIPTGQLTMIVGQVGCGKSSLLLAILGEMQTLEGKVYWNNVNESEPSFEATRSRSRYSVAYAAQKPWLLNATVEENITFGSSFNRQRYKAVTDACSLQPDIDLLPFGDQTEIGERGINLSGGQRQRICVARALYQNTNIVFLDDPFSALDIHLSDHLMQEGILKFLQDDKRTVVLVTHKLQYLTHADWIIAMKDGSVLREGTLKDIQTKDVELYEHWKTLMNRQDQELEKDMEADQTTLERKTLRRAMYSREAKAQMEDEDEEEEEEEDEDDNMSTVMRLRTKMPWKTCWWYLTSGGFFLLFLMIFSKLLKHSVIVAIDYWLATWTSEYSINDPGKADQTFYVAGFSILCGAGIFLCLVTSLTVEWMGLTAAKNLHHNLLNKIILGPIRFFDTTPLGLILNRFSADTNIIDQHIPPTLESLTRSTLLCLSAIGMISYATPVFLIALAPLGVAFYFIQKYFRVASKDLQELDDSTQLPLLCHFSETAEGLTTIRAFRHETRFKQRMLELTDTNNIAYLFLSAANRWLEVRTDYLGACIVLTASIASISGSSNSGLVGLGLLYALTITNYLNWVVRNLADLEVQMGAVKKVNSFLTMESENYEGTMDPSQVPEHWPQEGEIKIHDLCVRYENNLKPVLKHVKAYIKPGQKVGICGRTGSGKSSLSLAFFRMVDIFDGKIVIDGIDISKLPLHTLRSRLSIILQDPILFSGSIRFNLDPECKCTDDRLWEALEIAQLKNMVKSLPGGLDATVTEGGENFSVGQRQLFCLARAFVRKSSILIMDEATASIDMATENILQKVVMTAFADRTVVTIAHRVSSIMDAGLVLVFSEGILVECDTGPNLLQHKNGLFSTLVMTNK
# procedure-summary: Binding affinity towards Sulfonylurea receptor 2B (SUR2B) in cultured rat aortic smooth muscle cells (SMC)
Cut-off 7 on pKD, inclusive. At or above means satisfied; below means not satisfied.

smiles-data: CC1(C)Oc2ccc(S(=O)(=O)c3ccccc3)cc2[C@@H](N2CCCC2=O)[C@@H]1O
cat: satisfied

smiles-data: CC1(C)C=C(n2ccccc2=O)c2cc(S(=O)(=O)NCc3ccccc3)ccc2O1
cat: not satisfied

smiles-data: CC1(C)C=C(n2ccccc2=O)c2cc(S(=O)(=O)Nc3ccccc3F)ccc2O1
cat: satisfied

smiles-data: CC1(C)C=C(n2ccccc2=O)c2cc(S(=O)(=O)N3CCOCC3)ccc2O1
cat: not satisfied

smiles-data: CNS(=O)(=O)c1ccc2c(c1)C(n1ccccc1=O)=CC(C)(C)O2
cat: satisfied

smiles-data: CC(C)NS(=O)(=O)c1ccc2c(c1)C(n1ccccc1=O)=CC(C)(C)O2
cat: not satisfied

smiles-data: CC1(C)C=C(n2ccccc2=O)c2cc(S(=O)(=O)Nc3ccc(C#N)cc3)ccc2O1
cat: not satisfied

smiles-data: CC1(C)C=C(n2ccccc2=O)c2cc(C#N)ccc2O1
cat: satisfied

smiles-data: CN(c1ccccc1)S(=O)(=O)c1ccc2c(c1)C(n1ccccc1=O)=CC(C)(C)O2
cat: satisfied

smiles-data: CC1(C)C=C(n2ccccc2=O)c2cc(S(=O)(=O)Nc3ccc([N+](=O)[O-])cc3)ccc2O1
cat: not satisfied

Determine whether this molecule has pKD no lower than 7: `CC1(C)C=C(n2ccccc2=O)c2cc(S(=O)(=O)F)ccc2O1`
satisfied

Determine whether this molecule has pKD no lower than 7: `CC1(C)C=C(n2ccccc2=O)c2cc(S(=O)(=O)Nc3ccccc3Br)ccc2O1`
satisfied

Determine whether this molecule has pKD no lower than 7: `COc1ccc(NS(=O)(=O)c2ccc3c(c2)C(n2ccccc2=O)=CC(C)(C)O3)cc1`
not satisfied

Determine whether this molecule has pKD no lower than 7: `CC1(C)C=C(n2ccccc2=O)c2cc(S(=O)(=O)Oc3ccccc3)ccc2O1`
satisfied

Determine whether this molecule has pKD no lower than 7: `CC1(C)C=C(n2ccccc2=O)c2cc(S(=O)(=O)Nc3ccc(Br)cc3)ccc2O1`
not satisfied

Determine whether this molecule has pKD no lower than 7: `CC1(C)C=C(n2ccccc2=O)c2cc(S(=O)(=O)NC3CCCC3)ccc2O1`
not satisfied
